Reported values of pIC50 for individual entries
Biological target: human FPR1 (Homo sapiens, UniProt P21462)
Sequence (P21462 whole entry): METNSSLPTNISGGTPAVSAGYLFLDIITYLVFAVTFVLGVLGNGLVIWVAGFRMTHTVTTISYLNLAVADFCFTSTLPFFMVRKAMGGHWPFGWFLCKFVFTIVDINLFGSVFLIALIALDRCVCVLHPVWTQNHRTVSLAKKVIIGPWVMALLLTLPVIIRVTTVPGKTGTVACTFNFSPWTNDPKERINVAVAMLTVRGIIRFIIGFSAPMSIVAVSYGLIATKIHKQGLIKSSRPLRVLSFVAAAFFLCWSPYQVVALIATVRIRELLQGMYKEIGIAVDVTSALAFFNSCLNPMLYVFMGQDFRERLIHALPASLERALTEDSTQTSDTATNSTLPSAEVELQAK
Assay: Antagonist effect on Ca2+ mobilization in FPR1-HL60 transfected cells
Conditions: read-out: FPR1-HL60 (IC50); inhibition of Ca2+ mobilization induced by 5 nM fMLF; N.A. = Not Active
Scale explanation: pIC50 corresponds to minus log10 of a concentration expressed in moles per litre.

# compound, pIC50
rows = [
    ("CCCc1cc2c(=O)c(-c3ccccc3OC)c(C)oc2cc1OC(=O)N(C)C", 4.54),
    ("CCCCCc1cc2c(=O)c(-c3ccccc3OC)c(C)oc2cc1OC(C)=O", 6.40),
    ("CCCCCCC(=O)Oc1cc2oc(C)c(-c3cccc(OC)c3)c(=O)c2cc1C [Compound 37b]", 4.66),
    ("CCCCc1cc2c(=O)c(-c3ccccc3OC)c(C)oc2cc1OC(C)=O", 6.10),
    ("CCCc1cc2c(=O)c(-c3cccc(OC)c3)c(C)oc2cc1OC(C)=O [Compound 26b]", 6.82),
]

Next up:
IN: What does the data say about its pIC50? Entry: CCCCCCc1cc2c(=O)c(-c3cccc(OC)c3)c(C(F)(F)F)oc2cc1OC(C)=O [Compound 25b]
OUT: 6.80

* * *

Reported values of remaining at 0.5 h, 10 µM for individual entries
Test: in vitro
Details: rat, rat liver microsomes, pH 7.4
Output should be the measured figure followed by the unit it is expressed in.

# molecule, remaining at 0.5 h, 10 µM
records = [
    ("CCCCCCc1cc2c(=O)c(-c3ccccc3OC)c(C)oc2cc1NC(C)=O [Compound 35a]", "14%"),
    ("CCCCCCc1cc2c(=O)c(-c3ccccc3OC)c(C)oc2cc1OCC(F)F [Compound 30]", "18%"),
]

IN: What does the data say about its remaining at 0.5 h, 10 µM? Entry: CCCc1cc2c(=O)c(-c3ccccc3OC)c(C)oc2cc1NC(C)=O [Compound 36]
OUT: 15%
